Entries and their measured TGI follow.
tested on: CAKI-1 renal; assay: NCI tumour cell line growth inhibition, 48 h
Peptide text beside a SMILES is read from it. * marks the point of attachment. Boc = CC(C)(C)OC(=O)*; OBn = c1ccc(CO*)cc1
reported endpoint: TGI

# molecule, value measured
data = [
    ("CC(=O)Nc1c(C)ccc2c1C(=O)c1ccccc1C2=O", "> 100 µM"),
    ("COc1cccc2c(Nc3ccc(S(=O)(=O)NC(C)=O)cc3)c3ccc([N+](=O)[O-])cc3nc12", "> 100 µM"),
    ("CN(C)c1ccc(/C=c2/c3ccccc3n3c2cc(C24CC5CC(CC(C5)C2)C4)[n+]3C)cc1", "1.04 µM"),
    ("CC(=O)NC1C(O)C(O)C(CO)OC1n1ncc(=O)[nH]c1=O (centres undefined)", "> 100 µM"),
    ("CCN(CC)C(=S)SNCc1ccc(S(N)(=O)=O)cc1", "31.3 µM"),
    ("CN(/N=C/c1ccccn1)C1=NCCCCN1", "> 100 µM"),
    ("Cc1nc2cc(N)c(F)cc2[nH]1", "> 100 µM"),
    ("CCCCc1ccc(-n2c3nc(=O)n(C)c(=O)c-3nc3ccccc32)cc1", "54.5 µM"),
    ("CC(NC(=O)CNC(=O)OC(C)(C)C)C(=O)NC(Cc1ccccc1)C(=O)OCc1ccccc1 (stereo not drawn) (Boc-Gly-Ala-Phe-OBn; configuration not given here)", "> 100 µM"),
]

---

GI50 by entry:
tested on: SNB-19 CNS; experiment: NCI tumour cell line growth inhibition, 48 h
reported endpoint: GI50

# compound, measurement target, value measured
records = [
    ("NC1CCCCC1N.O=S(=O)([O-])CCCN1CCOCC1.O=S(=O)([O-])CCCN1CCOCC1.[Pt+4]", "SNB-19 CNS", "25.7 µM"),
    ("C[C@@H]1N=C(c2ccc(Br)cc2)Nc2nc3ccccn3c2C1=O", "SNB-19 CNS", "7.45 µM"),
    ("COc1cc2cc(C(=O)Nc3cc(N)c4ccccc4c3CCCl)[nH]c2c(OC)c1OC", "SNB-19 CNS", "0.122 µM"),
    ("COc1cccc(-c2nc3sccn3c2-c2ccnc(NCCNS(=O)(=O)c3ccccc3)c2)c1", "SNB-19 CNS", "5.92 µM"),
    ("Cc1cc(-c2nnc(N)nc2-c2ccc(F)cc2)cc(Cl)n1", "SNB-19 CNS", "> 100 µM"),
    ("COc1ccc(CNc2c3ccccc3nc3ccc(OC)cc23)cc1", "SNB-19 CNS", "4.14 µM"),
    ("NC(=O)c1ccc2c(-c3ccnc(NCCCO)n3)c(-c3ccc(F)cc3)nn2c1", "SNB-19 CNS", "> 25 µM"),
    ("CCOc1ccc(Nc2nc(-c3ccc4c(c3)NC(=O)CO4)cs2)cc1", "SNB-19 CNS", "18.9 µM"),
    ("CC/C(=C(/CC)c1ccc(O)cc1)c1ccc([O-])cc1.CC/C(=C(/CC)c1ccc(O)cc1)c1ccc([O-])cc1.O=C([CH-]C(=O)c1ccccc1)c1ccccc1.O=C([CH-]C(=O)c1ccccc1)c1ccccc1.[Ti+4]", "SNB-19 CNS", "14.7 µM"),
    ("CCC[CH2][Sn]([CH2]CCC)([O]C(=O)C(N)CSC)[O]C(=O)C(N)CSC (stereo unspecified)", "SNB-19 CNS", "12.1 µM"),
    ("O=c1[nH]ccc2nc(N3CCC(O)CC3)nc(Nc3cccc(C(F)(F)F)c3)c12", "SNB-19 CNS", "18.1 µM"),
]

---

test system: LOX IMVI melanoma; test: NCI tumour cell line growth inhibition, 48 h

# compound, measurement target, TGI
rows = [
    ("Nc1ccc2c3c(n(CCCCl)c(=O)c2c1)-c1cc2c(cc1C3=O)OCO2", "LOX IMVI melanoma", "> 100 µM"),
    ("COc1cc(C2C3=C(COC3=O)Oc3cc4c(cc32)OCO4)ccc1OC(C)=O (stereo not given)", "LOX IMVI melanoma", "> 100 µM"),
    ("COC(=O)C1=Cc2cc(OC)c(O)cc2[C@@H](c2ccc(O)c(OC)c2)[C@@H]1C(=O)OC", "LOX IMVI melanoma", "> 100 µM"),
    ("CCc1nc(N)nc(C(=O)NCCNC(=O)c2nc(N)nc(CC)c2C)c1C", "LOX IMVI melanoma", "> 100 µM"),
    ("COc1ccc(C2=C(c3ccc(OC)c(OC)c3)C(=O)OC2)cc1", "LOX IMVI melanoma", "> 39.1 µM"),
]

---

Parameter TGI: see the listing below.
system: M14 melanoma; test: NCI tumour cell line growth inhibition, 48 h

# compound, TGI
rows = [
    ("N#CC(Nc1ccccc1)c1ccc(C(C#N)Nc2ccccc2)cc1 (configuration not stated)", "> 100 µM"),
    ("CCOC(=O)C1=C(Nc2ccc(Cl)cc2Cl)OC/C1=N\\NS(=O)(=O)c1ccc(C)cc1", "> 100 µM"),
    ("O=C(Nc1ccc(F)cc1F)c1cc(Br)ccc1O", "6.99 µM"),
    ("O=C(Nc1cc[c]([Sb](=[O])([OH])[OH])cc1)c1ccccc1", "> 100 µM"),
    ("NC(=O)c1ccc2c(-c3ccnc(NCCCO)n3)c(-c3ccc(F)cc3)nn2c1", "> 25 µM"),
    ("Cc1cccc2[s+]snc12", "> 100 µM"),
    ("COc1cc(C2=C(C#N)C(N)OC3=C2COc2ccccc23)cc(OC)c1OC (configuration not stated)", "> 100 µM"),
    ("COc1cc(C2c3cc4c(cc3OC(Nc3ccccc3)C2C)OCO4)cc(OC)c1OC (configuration not stated)", "> 86.5 µM"),
    ("c1ccc2c(c1)-c1ccccc1C2N1CC2CCC(CC2)C1", "75.4 µM"),
    ("CC(=O)NC1C(O)C(O)C(CO)OC1n1ncc(=O)[nH]c1=O (configuration not stated)", "> 100 µM"),
    ("COc1cccc2c(Nc3ccc(S(=O)(=O)NC(C)=O)cc3)c3ccc([N+](=O)[O-])cc3nc12", "> 100 µM"),
    ("COC(=O)C1[C@@H](C(=O)OC)C12C=Cc1ccccc1C=C2 (some centres not stated)", "> 100 µM"),
    ("N=C(N)c1csc([C@@H]2O[C@H](CO)[C@@H](O)[C@H]2O)n1", "> 100 µM"),
    ("CC(=O)Nc1c(C)ccc2c1C(=O)c1ccccc1C2=O", "> 100 µM"),
    ("CN(C)CCCCN1c2ccccc2Sc2cc(N=[N+]=[N-])ccc21", "3.08 µM"),
    ("COc1ccc2c(c1)OC1=C(C(=O)OC1)C2c1cc(OC)c(OC)c(OC)c1 (configuration not stated)", "> 100 µM"),
    ("CC[O-].CC[O-].O=C1C(c2ccccc2)=C([O-])c2ccccc21.O=C1C(c2ccccc2)=C([O-])c2ccccc21.[Ti+4]", "> 100 µM"),
]

---

GI50 values by entry
tested on: CAKI-1 renal; experiment: NCI tumour cell line growth inhibition, 48 h
Where a SMILES comes first, the peptide text is derived from it. [ ]: non-standard residue; d: D form. The star is where a group is joined. ξ: configuration not given here. NMeN = CN[C@@H](CC(N)=O)C(=O)O; NMeV = CN[C@H](C(=O)O)C(C)C; ξNMeV = CNC(C(=O)O)C(C)C; Boc = CC(C)(C)OC(=O)*; ξNMeA = CNC(C)C(=O)O
reported endpoint: GI50

# molecule, measurement target, value measured
records = [
    ("COC(=O)C(C)N(C)C(=O)[C@H](CC(N)=O)N(C)C(=O)[C@@H]1CCCN1C(=O)[C@H](C(C)C)N(C)C(=O)C(C(C)C)N(C)C(=O)[C@@H](NC(=O)OC(C)(C)C)C(C)C (stereo partly drawn) (Boc-V[ξNMeV][NMeV]P[NMeN][ξNMeA]-OMe)", "CAKI-1 renal", "> 100 µM"),
    ("C=C1C(=O)[C@@]23CC1C(O)[C@@H](OC(C)=O)[C@@H]2C1(C)C(OC(C)=O)C[C@@H](OC(C)=O)C(C)(C)[C@@H]1C[C@H]3OC(C)=O (stereo partly drawn)", "CAKI-1 renal", "3.03 µg/mL"),
    ("Cc1cc(N2CCN(c3ccnc4cc(Cl)ccc34)CC2)nc(NC2CCCCC2)n1", "CAKI-1 renal", "1.63 µM"),
    ("CC(C)CNc1nc(-c2ccccc2)nc2ccccc12", "CAKI-1 renal", "15.4 µM"),
    ("O=S(=O)(c1ccc(N=C2NN=C(c3c[nH]c4ccccc34)CS2)cc1)N1CCOCC1", "CAKI-1 renal", "78.1 µM"),
    ("C=CCN(CC=C)C(=O)c1cc(C)nc2c1c(=O)n(-c1ccccc1)c(=O)n2CC(O)CN1CCN(c2ncccn2)CC1 (stereo not drawn)", "CAKI-1 renal", "> 100 µM"),
    ("O=C(CC12CC3CC(CC(C3)C1)C2)NCCOCCOCCOCCNC(=O)c1cc2c(o1)C(=O)c1ccccc1C2=O", "CAKI-1 renal", "1.93 µM"),
    ("COc1cccc(-c2nc3sccn3c2-c2ccnc(NCCNS(=O)(=O)c3ccccc3)c2)c1", "CAKI-1 renal", "1.42 µM"),
]
